Hey, just so you know, these numbers are from patent US9505728B2.

Target: Human PPARα (Homo sapiens, UniProt Q07869)
Construct: host or cells: proprietary non-human mammalian cells
Sequence (Q07869 whole entry): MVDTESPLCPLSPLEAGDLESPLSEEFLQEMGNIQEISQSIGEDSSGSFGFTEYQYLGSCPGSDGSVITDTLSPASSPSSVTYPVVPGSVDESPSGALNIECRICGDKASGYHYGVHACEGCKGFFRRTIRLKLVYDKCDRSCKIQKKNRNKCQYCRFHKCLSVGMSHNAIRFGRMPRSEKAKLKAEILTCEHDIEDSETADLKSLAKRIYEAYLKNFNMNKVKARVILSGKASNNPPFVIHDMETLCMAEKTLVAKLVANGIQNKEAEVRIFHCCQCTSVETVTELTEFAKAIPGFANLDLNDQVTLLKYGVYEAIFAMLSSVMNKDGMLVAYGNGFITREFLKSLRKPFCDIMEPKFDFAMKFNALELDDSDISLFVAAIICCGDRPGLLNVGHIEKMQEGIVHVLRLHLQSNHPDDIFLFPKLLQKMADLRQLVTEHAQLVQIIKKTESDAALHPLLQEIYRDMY
Assay: Human PPARα Reporter Assay (luciferase)
Type: cell-based
Conditions: human PPARα reporter cells, overnight incubation, antagonism; read-out: Luciferase IC50
property measured: IC50 (nM)

Example entries and their recorded answers appear below.
CCn1c(CCCc2ccc(-c3cccc(NS(=O)(=O)c4ccc(-c5ccc(C)cc5)cc4)n3)cc2)nn(Cc2ccc(C(C)(C)C)cc2)c1=O [Example 73] :: 62
CCn1c(CCCc2ccc(-c3cccc(NC(=O)Cc4ccccc4)n3)cc2)nn(Cc2ccc(C(C)(C)C)cc2)c1=O [Example 101] :: 402
CCn1c(CCCc2ccc(-c3ccnc(NS(=O)(=O)c4ccccc4)n3)cc2)nn(Cc2ccc(C(C)(C)C)cc2)c1=O [Example 138] :: 33
CCn1c(CCCc2ccc(-c3cc(N)ccn3)cc2)nn(Cc2ccc(C(C)(C)C)cc2)c1=O [Example 11] :: 157
CC(C)(C)c1ccc(Cn2nc(CCCc3ccc(-c4cccc(CC(=O)O)c4)cc3)n(-c3ccccc3)c2=O)cc1 [Example 32] :: 2990
CCn1c(CCCc2ccc(-c3ccc(C4(F)COC4)cn3)cc2)nn(Cc2ccc(C(C)(C)C)cc2)c1=O [Example 191] :: 41
CCn1c(CCCc2ccc(-c3cccc(CC(=O)O)c3)cc2)nn(Cc2ccc(C3CCCCC3)cc2)c1=O [Example 26] :: 4110
CCn1c(CCCc2ccc(-c3ccc(OC)c(NS(=O)(=O)c4ccccc4)n3)cc2)nn(Cc2ccc(C(C)(C)C)cc2)c1=O [Example 59] :: 3

a = CCn1c(CCCc2ccc(-c3cccc(C(=O)C(=O)NC4CC4)c3)cc2)nn(Cc2ccc(C(C)(C)C)cc2)c1=O [Example 57]
b = CCn1c(CCCc2ccc(-c3ccc(NS(=O)(=O)c4ccc(C(F)(F)F)cc4)cn3)cc2)nn(Cc2ccc(C(C)(C)C)cc2)c1=O [Example 86]
c = CCn1c(CCCc2ccc(-c3ccc(OC)c(CN)c3)cc2)nn(Cc2ccc(C(C)(C)C)cc2)c1=O [Example 184]
Incoming: Please list the entries, largest IC50 first. Give the labels in the order specified.
Outgoing: b, c, a

P = CCn1c(CCCc2ccc(-c3ccc(NS(=O)(=O)c4ccc5c(c4)CCN5C(C)=O)cn3)cc2)nn(Cc2ccc(C(C)(C)C)cc2)c1=O [Example 75]
Q = CCn1c(CCCc2ccc(-c3ccc(OC)c(NS(=O)(=O)c4ccccc4)c3)cc2)nn(Cc2ccc(C(C)(C)C)cc2)c1=O [Example 151]
Incoming: Between the two listed entries P and Q , which has its IC50 at the higher number? Please identify the chosen entry by its label.
Outgoing: P

a = CCn1c(CCCc2ccc(-c3ccc(C4(O)COC4)cc3)cc2)nn(Cc2ccc(C(C)(C)C)cc2)c1=O [Example 174]
b = CCn1c(CCCc2ccc(-c3csc(CC(=O)O)c3)cc2)nn(Cc2ccc(C(C)(C)C)cc2)c1=O [Example 39]
Incoming: In terms of reported IC50, does a or b have the smaller number? Please identify the chosen entry by its label.
Outgoing: a
